- Tested on: S. cerevisiae NKY1551 his4x/his4B, sporulating;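 also: active if sensitivity score above 5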
- procedure-text: HIS4 meiotic recombination assay sensitivity score (z-score vs DMSO controls); higher = stronger inhibition of sporulation/recombination, active = hit call of the paper
Counter-ions that a name gives are not always drawn.
Please note: 1.0 applies when HIS4 meiotic recombination assay sensitivity score is -0.7 or greater, and 0.0 applies otherwise.

[ask] Hi, just wondering whether Oc1ccc(/C=C/c2cc(O)cc(O)c2)cc1 [Resveratrol] (stock concentration (mM, diluted 1:100): 10) shows HIS4 meiotic recombination assay sensitivity score of -0.7 or higher.
[reply] 1.0

[ask] hey, is HIS4 meiotic recombination assay sensitivity score for this one >= -0.7? CC(C)Oc1ccc2c(=O)c(-c3ccccc3)coc2c1 [Ipriflavone] (stock concentration (mM, diluted 1:100): 10)
[reply] 0.0

[ask] API: above_or_equal(metric=HIS4 meiotic recombination assay sensitivity score, cutoff=-0.7) for item CC(C(=O)O)c1ccc(CC2CCCC2=O)cc1 (stereo unspecified) [Loxoprofen sodium] (stock concentration (mM, diluted 1:100): 9.1)
[reply] 1.0

[ask] Tell me whether HIS4 meiotic recombination assay sensitivity score is at least -0.7 here: CC(C)NCC(O)c1ccc(NS(C)(=O)=O)cc1 (stereo unspecified) [Sotalol hydrochloride] (stock concentration (mM, diluted 1:100): 8.8)
[reply] 1.0

[ask] Kindly determine if HIS4 meiotic recombination assay sensitivity score recorded for COc1ccc(C(=O)NCc2ccc(OCCN(C)C)cc2)cc1OC [Itopride hydrochloride] (stock concentration (mM, diluted 1:100): 8.2) is above or exactly -0.7.
[reply] 0.0
